# Target Under Test: T1, P3028 (VFDEFKPLVEEPQNLIK, SEQ ID NO: 185), His-tagged (human)
# T1 construct: Synthetic fragment of human serum albumin (positions 397-413); used in solution as His-tagged peptide PGE73; also called PGE73; not shown: His-tag
# T1 peptide: VFDEFKPLVEEPQNLIK
# Protocol Description: PEPSCAN ELISA; peptide on chip, His-P3028 added;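 note: peroxidase color development with ABTS and H2O2 substrate, OD405 imaged by CCD camera with image processing and taken as raw values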
Parameter Measured: RAMPO Score (rampo units)
One number for each entry, in rampo units.

Sample records with RAMPO Score:
### Prompt Please report the recorded RAMPO Score for KKLDFFFVKLSLFTER [KKLDFFFVKLSLFTER (SEQ ID NO: 504)] .
### Response 290

### Prompt Cool, now KKLDTFFVKLSLFTMR [KKLDTFFVKLSLFTMR (SEQ ID NO: 524)]
### Response 247

### Prompt Now consider KWLDTFFVKLSLFTER [KWLDTFFVKLSLFTER (SEQ ID NO: 490)] and answer again.
### Response 304

### Prompt Please do the same for KKLDTFFVKASLFTER [KKLDTFFVKASLFTER (SEQ ID NO: 332)] as well.
### Response 426

### Prompt Subsequent entry: KKLDTFFVKNSLFTER [KKLDTFFVKNSLFTER (SEQ ID NO: 337)]
### Response 365

Quick one: give me RAMPO Score for each item below, same order please.
1. KKLDTFFVKHSLFTER [KKLDTFFVKHSLFTER (SEQ ID NO: 502)]
2. KKLDTFPVKLSLFTER [KKLDTFPVKLSLFTER (SEQ ID NO: 437)]

### Response
1. 293
2. 356

meta.source: patent US20180177842A1
